D(3) dopamine receptor (Rattus norvegicus, UniProt P19020) Ki, compiled from various sources.
Sequence (P19020 whole entry): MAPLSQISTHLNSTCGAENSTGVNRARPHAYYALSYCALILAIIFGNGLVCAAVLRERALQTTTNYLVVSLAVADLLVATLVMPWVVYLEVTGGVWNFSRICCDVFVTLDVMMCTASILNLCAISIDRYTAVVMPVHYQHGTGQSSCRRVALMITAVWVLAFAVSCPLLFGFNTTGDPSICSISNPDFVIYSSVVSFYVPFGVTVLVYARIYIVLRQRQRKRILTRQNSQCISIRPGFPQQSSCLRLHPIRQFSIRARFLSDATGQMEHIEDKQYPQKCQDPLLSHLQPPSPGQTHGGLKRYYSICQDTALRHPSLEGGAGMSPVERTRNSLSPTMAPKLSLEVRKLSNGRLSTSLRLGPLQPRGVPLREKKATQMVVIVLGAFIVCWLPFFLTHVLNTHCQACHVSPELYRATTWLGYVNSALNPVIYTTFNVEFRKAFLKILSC
Give the value, in units of nM, as a plain number.

Q. # return recorded Ki for input CCCN(CCN1CCN(c2ccccc2)CC1)C1CCc2ccc(N)cc2C1 (racemic)
A. 22.2

Q. Please list Ki recorded for the molecule O=C1CCc2cc(CCCCN3CCC(c4noc5cc(F)ccc45)CC3)cc3c2N1CC3
A. 54.9

Q. For the molecule CCCN(CC[C@H]1CC[C@H](NC(=O)c2ccc(-c3noc(C4CC4)n3)cc2)CC1)[C@H]1CCc2nc(N)sc2C1 , give its measured Ki value.
A. 3.5

Q. Let me know recorded Ki for CCCN(CCCCCCCCCc1ccccc1)[C@H]1CCc2c(O)cccc2C1 , thanks.
A. 23

Q. Return reported Ki. Input molecule: CCCN(CC[C@H]1CC[C@H](NC(=O)/C=C/c2ccc(OC)cc2)CC1)[C@H]1CCc2nc(N)sc2C1
A. 6.7
